Value source: ChEMBL document CHEMBL5360601

Assay: Induction of proliferation of human CD8-positive T cell measured after 24 hrs by Cell titer glo assay
pEC50: −log10 of the molar value.
ENDPOINT NAME: pEC50

What value of pEC50 has been reported for the following molecule? "Cc1nc2sccn2c(=O)c1CCN1CCC(=C(c2ccc(F)cc2)c2ccc(F)cc2)CC1"
< 5.00

Record: "O=c1c2ccccc2[nH]c(=S)n1CCN1CCC(=C(c2ccc(F)cc2)c2ccc(F)cc2)CC1"
< 5.00

Record: "Cn1c(=O)c([N+](=O)[O-])c(N2CCN(C(c3ccc(F)cc3)c3ccc(F)cc3)CC2)c2nc(C#N)ccc21"
7.19

---

Assay: Metabolic stability in mouse liver microsomes assessed as parent compound remaining
Format: ADME, Microsome
Assign Stability to each entry below.
Only the number, expressed in %, is required.

What value of Stability has been reported for the following molecule? "Cn1c(=O)c([N+](=O)[O-])c(N2CCN(Cc3ccccc3)CC2)c2cc(F)ccc21"
8

Record: "CN(C)c1ccc2c(c1)c(N1CCN(C(c3ccc(F)cc3)c3ccc(F)cc3)CC1)c([N+](=O)[O-])c(=O)n2C"
5

Record: "Cn1c(=O)c([N+](=O)[O-])c(N2CCN(C(c3ccc(F)cc3)c3ccc(F)cc3)CC2)c2cc(F)ccc21"
77

Record: "Cn1c(=O)c([N+](=O)[O-])c(N2CCN(C(c3ccc(F)cc3)c3ccc(F)cc3)CC2)c2cnccc21"
63

Record: "Cn1c(=O)c(C#N)c(N2CCN(C(c3ccc(F)cc3)c3ccc(F)cc3)CC2)c2nc(C#N)ccc21"
80

Record: "Cn1c(=O)c([N+](=O)[O-])c(N2CCN(C(c3ccc(F)cc3)c3ccc(F)cc3)CC2)c2nc(C#N)ccc21"
99

Record: "Cn1c(=O)c([N+](=O)[O-])c(N2CCN(C(c3ccccc3)c3ccccc3)CC2)c2ccccc21"
82

Record: "COc1ccc2c(c1)c(N1CCN(C(c3ccc(F)cc3)c3ccc(F)cc3)CC1)c([N+](=O)[O-])c(=O)n2C"
8

Record: "CCOC(=O)c1c(N2CCN(C(c3ccccc3)c3ccccc3)CC2)c2ccccc2n(C)c1=O"
52

Record: CC(c1ccccc1)N1CCN(c2c([N+](=O)[O-])c(=O)n(C)c3ccccc23)CC1 (stereo not drawn)
4

Record: "Cn1c(=O)c([N+](=O)[O-])c(N2CCN(CCc3ccccc3)CC2)c2ccccc21"
6

Record: "Cn1c(=O)c([N+](=O)[O-])c(N2CCN(C(c3ccc(F)cc3)c3ccc(F)cc3)CC2)c2ncccc21"
88

Record: "Cn1c(=O)c([N+](=O)[O-])c(N2CCN(C(c3ccc(F)cc3)c3ccc(F)cc3)CC2)c2ccccc21"
84

Record: "Cn1c(=O)c(C(=O)C(F)(F)F)c(N2CCN(C(c3ccccc3)c3ccccc3)CC2)c2ccccc21"
63

Record: "COc1ccc2c(n1)c(N1CCN(C(c3ccc(F)cc3)c3ccc(F)cc3)CC1)c(C#N)c(=O)n2C"
43

Record: "Cn1c(=O)cc(N2CCN(C(c3ccccc3)c3ccccc3)CC2)c2ccccc21"
63

Record: "Cn1c(=O)c([N+](=O)[O-])c(N2CCN(C(c3ccc(F)cc3)c3ccc(F)cc3)CC2)c2cc(C#N)ccc21"
93

---

Assay: Half life in C57BL6 mouse at 1 mg/kg, iv administered as bolus dose measured upto 72 hrs by LC/MS/MS analysis
Format: ADME, organism-based
Settings: in vivo
ENDPOINT NAME: half-life (h)
Only the number, expressed in h, is required.

What value of half-life has been reported for the following molecule? "Cn1c(=O)c([N+](=O)[O-])c(N2CCN(C(c3ccc(F)cc3)c3ccc(F)cc3)CC2)c2nc(C#N)ccc21"
22.5
